Form field: apparent KD of K4 kissing-loop reporter (one value per entry).
- Test system: K4 kissing-loop RNA reporter
- ASSAY NOTES: apparent KD of K4 kissing-loop reporter; higher = weaker reporter binding
- TEST SETTINGS: Eterna round: R107; input ligand: FMN 200 uM

{"columns": ["RECORD SEQUENCE", "apparent KD of K4 kissing-loop reporter"],
 "data": [
  ["ACGAUCAUGUCGGCCGCCACUGAGAGUAGUGAUGUUACUUUUAUGUUUUAGUUAUAAUAUUUGAACAGGACCGGGACAUGUUCGU [JR_ExcTryptoB_Sub023]", "103 nM"],
  ["CUCGUGGGUUUGAGAGGGCUUGUGGGAAGUGAGGAUAUUUAGGGAGAAAGAAGGCACUAUAGAAUAUAGUGAUGUUAUAUAAGGG [SSFMNA.N]", "314 nM"],
  ["GGAGAGGUCUUGUUUGGAUGUGUUUAAUGGCGAGGACCGGUACGGCCGCCACUCGGGUGAUGUUAGUGAUGUUGAUGUUGUGAUG ['oo'mullin]", "137 nM"],
  ["AAACAUUGGUCUGAUACCAGUUAGACCGAUAAGGUCAAAACUGGAGUGAUGUUCCCAAAUAACCCUUGGCAGCAGACCGAUGAAA [MAT - Same State Theophlline B - Mod of Eli - D10]", "147 nM"],
  ["AAUAAAAUCACGGCCGCCACUGAUACUAGUAUUAGCAGUGAUGUUGCUAUGUAUAAUUUAUUAAAUAGGACCGGGUGAAUAUUUA [#25 K4 Tryptophan B Exclusion]", "298 nM"],
  ["AGUGGACGUGUCCGGAGUGAUGUUCCGGAUACCAGACACGAAAGUGUCCCUUGGCAGCCGGAGUGAUGUUCCGGCGUUCACUAAA [Omei KL Theo A Exc B v1]", "270 nM"]
]}

###

- Test system: K4 kissing-loop RNA reporter;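 further: bound reporter read as fluorescence of individual clusters on recovered sequencing chips by microscopy, with normalized cluster intensities fitted with a binding model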
- ASSAY NOTES: apparent KD of K4 kissing-loop reporter; higher = weaker reporter binding
- TEST SETTINGS: Eterna round: R107; input ligand: theophylline 20 uM
Reported apparent KD of K4 kissing-loop reporter values for the following sequences.

{"columns": ["RECORD SEQUENCE", "SYSTEM UNDER TEST", "apparent KD of K4 kissing-loop reporter [µM]"],
 "data": [
  ["AGAUACUUUAUCGCUAGAGGCAUUGCAGAUACCAGCCUAUCUAGAGGCCCUUGGCAGCUGGAGUGAUGUUUCGGCUUAGCUAAAG [theeternabot_exclusion_KL_Theo_A_32]", "K4 kissing-loop RNA reporter", 0.348],
  ["CUGAUGCUGAUGCGGUGGCCGGUGGUCGUGCGAGGACCGGUACGGCCGCCACUCGCAUGAGUGAUGUUCAUGUGUCGUCGUCGUC [#04 K4 Tryptophan A Exclusion]", "K4 kissing-loop RNA reporter", 0.164],
  ["AAAUUCUUUUUUUUAUUUAACUUUUCAGAAGGAGCGUGGUAGUUCACAGGUAGGUCGCUGAAUUUUGGACUAGUGAUGUUAGUUA [JR_SSArginiA_Sub006]", "K4 kissing-loop RNA reporter", 0.216]
]}

###

- Tested on: MS2 coat protein
- ASSAY NOTES: apparent KD of MS2 coat protein; designed switch direction (-1 OFF switch, 1 ON switch): -1; higher = weaker reporter binding
- TEST SETTINGS: Eterna round: R95; input ligand: FMN 200 uM
Short version: apparent KD of MS2 coat protein at least 40 nM is 1, less is 0.

{"columns": ["RECORD SEQUENCE", "CATEGORY"],
 "data": [
  ["CUGGUCCGAGGAUAUAUGAUGUGAAACAUGAGGAUCACCCAUGUAAUAUUAUGGAUGUAAAUAGAAGGCGGACUAG [JL-ex5-3.08] (puzzle: Exclusion 5)", 0],
  ["AGUACUUACACGAAAGUGUUAGUACAAUAAGCUUGUGAAACAUGAGGAUCACCCAUGUCCUCAUAAGCUCGUCUUAU [salish99_TOv2_r3_016] (puzzle: Sensor v3, turn-off variant 2)", 0],
  ["AAUAAUAAGGAGGAUAUCGUAUGCGAAAGCAUACGAGAAGGCCUAACAUGAGGAUCACCCAUGUUCCUCAAUAA [Mat - Exclusion 6 - Eli Mod - D55] (puzzle: Exclusion 6)", 1],
  ["CCGCAAAAGGAGGAUAUCGUAUCGGAUACGAUACGAGAAGGCCUAACAUGAGGAUCACCCAUGUGUCCUAGCGG [Fiskers Ex 6 - 36] (puzzle: Exclusion 6)", 0],
  ["AAGAAACAUGAGGAUCACCCAUGUGAGGAUAUGACCAAGAAAAGAAAAGAAAGAAGAUUCAGAAGGCACAAAGG [salish99-ex1_r3_060] (puzzle: Exclusion 1)", 1],
  ["UAUUAUCAAGCAAGAUCCUACAUGAGGAUCACCCAUGUGCUCGUCUUAUAAGGUACUGUGACGAAAGUCACGGUACC [Sensor 3, v1 - 73] (puzzle: Sensor v3, turn-off variant 1)", 1],
  ["GCAGGAUAAGUGAGGAUAUACCUAUGGAUACAUAGGUAGAAGGCACAUGAGGAUCACCCAUGUUACUCGCCUGC [Fiskers BMX 4 - 75] (puzzle: Brourd's mod of Exclusion 4)", 1],
  ["GAAAAGGUAGGAUAUACGAAAAAAAAGGGUAGAAAAAAAAAACAUGAGGAUCACCCAUGUAGAAGGACCAAAAG [salish99_ex2_r3_059] (puzzle: Exclusion 2)", 1],
  ["UUUUAGAGAGGAUAUAUUAUGUGAAACAUGAGGAUCACCCAUGUAAUAUGAUGGAUGUAAAUAGAAGGCUCAUUUA [JL-ex5-3.06] (puzzle: Exclusion 5)", 0],
  ["UGUACGAUGCGUGCUGACAUGCGUCGUGCAGCAGGUGGAACAUGAGGAUCACCCAUGUCCUCAUUUGCUCGUCUUGU [SL-sv3-2.10 JL mod] (puzzle: Sensor v3, turn-off variant 2)", 1],
  ["AAGAGUGCAGGAUAUACUUGUUAGGACGGUUGGAUGAAUGGACAUGAGGAUCACCCAUGUAGAAGGGCAGAGAG [JR_Exclu2_Sub051] (puzzle: Exclusion 2)", 0],
  ["UAUCGGCGGACCCAGGCUUUUUGCUCGUCUUAUGCUAUGACAUGAGGAUCACCCAUGUGGUGGUGGUCCGUUGUAGU [JL ViennaUCT Bitein mod 11] (puzzle: Sensor v3, turn-off variant 2)", 0],
  ["AAGAAGCGAGGAUAUACAUGAGGAUCACCCAUGUACCUCAUAAAGAAAAGAAAAGAAAGUAGAAGGCGCAAAAG [Default title] (puzzle: Exclusion 3)", 0],
  ["ACUAGCUUUUUGCAUAUUAGGUUUGUUGCUUCGUAUGUAACAUGAGGAUCACCCAUGUAUUACUGAUGUCGUCGUUU [JR_SV3TOV2_Sub091] (puzzle: Sensor v3, turn-off variant 2)", 0],
  ["GGUCAAGAACAGCUCCGCGCUGCCCUCGACCGCUCAUUUACAUGAGGAUCACCCAUGUUUUUUGCUUGUCUUGUUAC [Usvetive] (puzzle: Sensor v3, turn-off variant 2)", 0],
  ["CUGAGGUAGCGGUCCUAUGACAUGAGGAUCACCCAUGUACCUUGCUUCGAGCUUAUUGCUCGUCUUAUGAUUCUCGG [Mat - Sensor v3 - turn-off var 1 - JL Mod - D33] (puzzle: Sensor v3, turn-off variant 1)", 1],
  ["AGAAGACAUGAGGAUCACCCAUGUAAGGAUAUUGGAGGUUAGGGAUGCUGGAGUUGGGCAAGAAGGUACAGGUG [JR_Exclu1_Sub092] (puzzle: Exclusion 1)", 1],
  ["UCCUUACAUGAGGAUCACCCAUGUCAGGAUAUCUCGGGCGGCUGAGGACCAGCCGCCCAGAGAAGGGACGAGGA [Dixeinis] (puzzle: Exclusion 1)", 0],
  ["AAGAAACAUGAGGAUCACCCAUGUGAGGAUAUGAAAAAGAAAAGAAAAGAAAGAAGAAUCAGAAGGCACAAAGA [salish99-ex1_r3_080] (puzzle: Exclusion 1)", 0]
]}

###

apparent KD of MS2 coat protein for assorted sequences
- System: MS2 coat protein
- ASSAY NOTES: apparent KD of MS2 coat protein; designed switch direction (-1 OFF switch, 1 ON switch): -1; higher = weaker reporter binding
- TEST SETTINGS: input ligand: microRNA oligo, concentration not stated

{"columns": ["RECORD SEQUENCE", "apparent KD of MS2 coat protein"],
 "data": [
  ["UUUUUAUAUGAAGGAUAUACUUAACAUGAGGAUCACCCAUGUGGUGUUGUGAGUGAGUGAGUUUAGUAGAAGGUCAAUGAUUAU [JMF's solution 59] (Eterna round: R96, puzzle: Exclusion NG 2)", "0.205 µM"],
  ["GGCUGACAUGUAGGAUAUCUGCACGUGUAGUGCAGAGAAGGACAUGAGGAUCACCCAUGUAUAGCGACUUCGGUCGCAACAGCC [ENG1/2-A3] (Eterna round: R96, puzzle: Exclusion NG 1)", "0.0359 µM"],
  ["GUUGUUUAUGUAGGAUAUGCCAGGCGAGCCUAAGCAGAAGGACAUGAGGAUCACCCAUGUAUUGCGGUCUGCGUUCAGAUCGCU [salish99_ExNG1_r4_017] (Eterna round: R96, puzzle: Exclusion NG 1)", "0.0183 µM"],
  ["UAAUUAGACUCAGGAUAUUCGAAGAGAAGAGAGGAAGAAGGGAGGUGACAUGAGGAUCACCCAUGUAUGUGUUGUGUCCAUGUG [Exclusion NG 1 S1] (Eterna round: R96, puzzle: Exclusion NG 1)", "0.553 µM"],
  ["GAGCACUGCCGAGGAUAUCCACAUGAGGAUCACCCAUGUAGUGAAAAGUCCCAGUAGAACCAAAUGGAGAAGGUGGCAAGAUAU [Eternabot solution 21] (Eterna round: R96, puzzle: Exclusion NG 2)", "0.02 µM"],
  ["AGAUGCUCAAGUCGACAUGAGGAUCACCCAUGUACAGUUAAUGAGGAUAUCUGAGAUAAAUAAUAGGAGAAGGCGUGAACAUGA [Ex NG3 #9] (Eterna round: R96, puzzle: Exclusion NG 3)", "0.0203 µM"],
  ["UUGUUGUGUGUAGGAUAUGCGUAUUAUUAUUAUGCAGAAGGACAUGAGGAUCACCCAUGUGUAUUAUUAUUAUAUAUUAUAUAU [Title] (Eterna round: R96, puzzle: Exclusion NG 1)", "0.0218 µM"],
  ["UUGUUAUAUGUAGGAUAUGCGUAUUAUUGUUAUGCAGAAGGACAUGAGGAUCACCCAUGUAUAUUAUUGUUAUAUAUUAUAUAU [Title] (Eterna round: R96, puzzle: Exclusion NG 1)", "0.0203 µM"],
  ["UUAAUUUAAGGGAUAGAUCAUUACAUGAGGAUCACCCAUGUUGAGGAUAUCAGCUCGUGUAGAGCUGAGAAGGCAACAAUAGGG [ExNG3/14-A3] (Eterna round: R96, puzzle: Exclusion NG 3)", "0.377 µM"],
  ["ACAUGAGGAUCACCCAUGUCGAGUACAUGAGGAUCACCCAUGUAGGAUAUGGUUCGCUUUGCGUGCUAGAAGGAUAUGUGUUGC [salish99_ExNG3_r04_509] (Eterna round: R96, puzzle: Exclusion NG 3)", "0.199 µM"],
  ["AUAAAUAAUGCAGGAUAUGUCGGCGAAAGGCCGGCAGAAGGGCAGCGUGGAUGUAUCCUGAACAUGAGGAUCACCCAUGUGAAA [Ederisbi] (Eterna round: R96, puzzle: Exclusion NG 1)", "0.168 µM"],
  ["UUUAUAUAUGAAGGAUAUACUUAACAUGAGGAUCACCCAUGUGGUGUUGUGAGUGAGUGAGUUUAGUAGAAGGUCAAGUAUUUU [JMF's solution 49] (Eterna round: R96, puzzle: Exclusion NG 2)", "0.177 µM"],
  ["ACAUGAGGAUCACCCAUGUGCCCAUCUAGCACAUGUCCUCGCUAGGAUAUGUAGGCCUCGAGGCCGCAGAAGGAGCUAAAAGAG [Atgequa] (Eterna round: R96, puzzle: Exclusion NG 3)", "0.0828 µM"],
  ["CGGUGCUUCUGGAAACAUGAGGAUCACCCAUGUUGAGUUAGCGAGGAUAUCGGUAACACAUGUCACGAGAAGGCGCGAACCAGA [Ex NG3 #34] (Eterna round: R96, puzzle: Exclusion NG 3)", "0.013 µM"],
  ["GUCGUGCAGCUUUGCUGUACGAGUACAUGAGGAUCACCCAUGUAGGAUAUGGUACGCUUUGCGUGCCAGAAGGACGUGCGUUAG [salish99_ExNG3_r04_001] (Eterna round: R96, puzzle: Exclusion NG 3)", "0.0352 µM"],
  ["CUUCAAGCACCAGAGCUCACACUUAUACCUGCUCUGGUGACAUGAGGAUCACCCAUGUUUUUUGCCCGUCUUAUCUU [Sensor v3, turn-off variant 2 (MOD of Leso v.2)] (Eterna round: R96, puzzle: Sensor v3, turn-off variant 2)", "0.101 µM"],
  ["UGAUCUAGCGGAGGAUAUACAUGAGGAUCACCCAUGUAUAGGCCAUCUGGUGACAGGUGGAACAUGUAGAAGGCCGCUAGAUCU [JL ENG2 3.81] (Eterna round: R96, puzzle: Exclusion NG 2)", "0.00954 µM"],
  ["GGACUGCGACACAGCCAAACAAAACAUGAGGAUCACCCAUGUCAGGAUAUACCGAUGCAGCAUCUGUAGAAGGGACAGAUCCAA [Qusorave] (Eterna round: R96, puzzle: Exclusion NG 3)", "0.0454 µM"]
]}
